Entry source: ChEMBL document CHEMBL3861955

# Organism: Mus musculus
# ASSAY SUMMARY: Cytotoxicity against mouse RAW264.7 cells assessed as decrease in cell viability by MTT assay
# Format: toxicity, cell-based
MEASUREMENT KIND: Activity

{"SMILES STR": "CC(=O)OC[C@@]12C[C@@]3(OC(C)=O)C(=O)C(C)(C)C[C@H]3[C@]1(C)[C@@H](OC(C)=O)[C@@]1(O)C[C@H](C)[C@H](OC(=O)c3ccccc3)[C@@H]1[C@H]2OC(C)=O", "READING": "Non-Toxic"}
{"SMILES STR": "CC(=O)O[C@@H]1[C@H]2[C@@H](OC(=O)c3ccccc3)[C@@H](C)C[C@]2(O)[C@H](OC(C)=O)[C@@]2(C)[C@@H]3C[C@@](C)(O)CC(=O)[C@]3(OC(C)=O)C[C@@]12C", "READING": "Non-Toxic"}
{"SMILES STR": "CC(=O)O[C@H]1C[C@](C)(O)C[C@@H]2[C@@]1(OC(C)=O)C[C@@]1(C)[C@H](OC(C)=O)[C@H]3[C@@H](OC(=O)c4ccccc4)[C@@H](C)C[C@]3(O)[C@H](OC(C)=O)[C@@]21C", "READING": "Non-Toxic"}
{"SMILES STR": "CC(=O)O[C@@H]1[C@H]2[C@@H](OC(=O)c3ccccc3)[C@@H](C)C[C@]2(O)[C@H](OC(C)=O)[C@@]2(C)[C@@H]3C[C@](C)(O)CC(=O)[C@]3(OC(C)=O)C[C@@]12C", "READING": "Non-Toxic"}
{"SMILES STR": "CC(=O)O[C@@H]1[C@H]2[C@@H](OC(=O)c3ccccc3)[C@@H](C)C[C@]2(O)C(=O)[C@@]2(C)[C@@H]3CC(C)(C)C(=O)[C@@H]3C[C@@]12C", "READING": "Non-Toxic"}

====

# Organism: Mus musculus
# ASSAY SUMMARY: Cytotoxicity against mouse RAW264.7 cells assessed as decrease in cell viability by MTT assay
# Assay type: toxicity, cell-based
MEASUREMENT KIND: Activity

{"SMILES STR": "CC(=O)O[C@H]1C[C@](C)(O)C[C@@H]2[C@@]1(OC(C)=O)C[C@@]1(C)[C@H](OC(C)=O)[C@H]3[C@@H](OC(=O)c4ccccc4)[C@@H](C)[C@@H](OC(C)=O)[C@]3(O)[C@H](OC(C)=O)[C@@]21C", "MEASUREMENT KIND": "Activity", "READING": "Non-Toxic"}
{"SMILES STR": "CC(=O)O[C@@H]1[C@H]2[C@@H](OC(=O)c3ccccc3)[C@@H](C)C[C@]2(O)[C@H](OC(C)=O)[C@@]2(C)[C@@H]3CC(C)(C)C(=O)[C@@H]3C[C@@]12C", "MEASUREMENT KIND": "Activity", "READING": "Non-Toxic"}
{"SMILES STR": "CC(=O)O[C@@H]1[C@H]2[C@@H](OC(=O)c3ccccc3)[C@@H](C)C[C@]2(O)[C@H](OC(C)=O)[C@@]2(C)[C@@H]3C[C@@](C)(O)C[C@H](O)[C@]3(OC(C)=O)C[C@@]12C", "MEASUREMENT KIND": "Activity", "READING": "Non-Toxic"}
